The reported measurements were obtained from patent US5296498A.

assay.system: 5 HT2 receptors (Homo sapiens, UniProt P28223)
Sequence (P28223 whole entry): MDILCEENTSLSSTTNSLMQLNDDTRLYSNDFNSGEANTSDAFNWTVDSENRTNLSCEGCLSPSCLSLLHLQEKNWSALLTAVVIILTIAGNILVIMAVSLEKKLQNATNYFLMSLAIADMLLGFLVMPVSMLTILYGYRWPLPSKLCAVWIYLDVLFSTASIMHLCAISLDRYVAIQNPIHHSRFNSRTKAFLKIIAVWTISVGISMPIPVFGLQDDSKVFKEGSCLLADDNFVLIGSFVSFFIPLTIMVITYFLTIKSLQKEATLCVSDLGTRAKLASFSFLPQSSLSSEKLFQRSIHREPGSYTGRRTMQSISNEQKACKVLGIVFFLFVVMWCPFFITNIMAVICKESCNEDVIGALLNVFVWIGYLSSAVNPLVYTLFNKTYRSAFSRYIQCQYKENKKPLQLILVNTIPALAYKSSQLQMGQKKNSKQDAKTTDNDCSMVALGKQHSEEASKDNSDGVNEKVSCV
Structures can show the parent of a compound that is named as a salt.
property.measured: Ki

Sample N=C(N)NN=CC(C1CC1)C1CC1 [Example 2, hydrochloride] , system: 5 HT2 receptors (Homo sapiens, UniProt P28223). Its Ki is ~20 µM

* * *

assay.system: 5-HT1A receptors (Homo sapiens)
Sequence (P08908 whole entry): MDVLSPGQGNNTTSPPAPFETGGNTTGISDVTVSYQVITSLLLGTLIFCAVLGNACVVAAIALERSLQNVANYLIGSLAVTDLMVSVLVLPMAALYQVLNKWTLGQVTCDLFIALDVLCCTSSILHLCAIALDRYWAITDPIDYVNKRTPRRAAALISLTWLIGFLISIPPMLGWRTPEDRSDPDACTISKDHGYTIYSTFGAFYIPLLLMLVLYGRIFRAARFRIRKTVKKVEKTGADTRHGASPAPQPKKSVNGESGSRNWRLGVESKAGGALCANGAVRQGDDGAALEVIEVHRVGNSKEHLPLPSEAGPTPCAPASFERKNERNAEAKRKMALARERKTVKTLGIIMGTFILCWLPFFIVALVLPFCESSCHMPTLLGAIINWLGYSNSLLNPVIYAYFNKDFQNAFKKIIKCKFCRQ
Structures can show the parent of a compound that is named as a salt.
property.measured: Ki

Sample N=C(N)NN=CC(C1CC1)C1CC1 [Example 2, hydrochloride] , system: 5-HT1A receptors (Homo sapiens). Its Ki is ~10 µM
